# TARGET ENTITY: GABRA2-GABRB2-GABRG2 chloride currents in HEK cells (Homo sapiens (Human), UniProt P18507+P47869)
# Sequence (P47869 29-451): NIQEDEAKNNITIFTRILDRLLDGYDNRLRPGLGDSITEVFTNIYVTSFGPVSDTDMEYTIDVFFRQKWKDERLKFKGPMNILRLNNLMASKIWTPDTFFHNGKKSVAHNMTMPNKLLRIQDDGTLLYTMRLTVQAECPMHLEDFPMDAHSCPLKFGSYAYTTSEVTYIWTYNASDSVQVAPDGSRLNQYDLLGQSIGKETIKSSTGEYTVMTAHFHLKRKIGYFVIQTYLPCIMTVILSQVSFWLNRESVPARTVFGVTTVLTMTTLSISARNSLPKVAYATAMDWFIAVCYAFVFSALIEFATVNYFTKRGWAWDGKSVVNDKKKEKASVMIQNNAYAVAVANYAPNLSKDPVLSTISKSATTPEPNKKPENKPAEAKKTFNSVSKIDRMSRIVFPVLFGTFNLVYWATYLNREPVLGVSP
# Sequence (P47870 26-512 partner): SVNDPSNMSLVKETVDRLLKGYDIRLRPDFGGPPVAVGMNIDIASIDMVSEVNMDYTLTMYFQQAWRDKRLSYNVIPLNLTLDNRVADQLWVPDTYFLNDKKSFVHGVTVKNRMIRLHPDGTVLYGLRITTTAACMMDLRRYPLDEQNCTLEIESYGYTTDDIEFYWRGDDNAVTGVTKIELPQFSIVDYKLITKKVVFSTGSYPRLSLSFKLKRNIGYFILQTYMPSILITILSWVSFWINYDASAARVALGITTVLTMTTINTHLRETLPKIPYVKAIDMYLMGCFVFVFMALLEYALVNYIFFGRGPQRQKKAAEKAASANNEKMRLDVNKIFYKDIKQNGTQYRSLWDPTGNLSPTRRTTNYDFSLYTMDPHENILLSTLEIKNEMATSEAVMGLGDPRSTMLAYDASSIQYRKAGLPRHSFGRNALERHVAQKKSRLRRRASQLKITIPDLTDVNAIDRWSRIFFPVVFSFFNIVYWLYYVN
# Sequence (P18507 40-475): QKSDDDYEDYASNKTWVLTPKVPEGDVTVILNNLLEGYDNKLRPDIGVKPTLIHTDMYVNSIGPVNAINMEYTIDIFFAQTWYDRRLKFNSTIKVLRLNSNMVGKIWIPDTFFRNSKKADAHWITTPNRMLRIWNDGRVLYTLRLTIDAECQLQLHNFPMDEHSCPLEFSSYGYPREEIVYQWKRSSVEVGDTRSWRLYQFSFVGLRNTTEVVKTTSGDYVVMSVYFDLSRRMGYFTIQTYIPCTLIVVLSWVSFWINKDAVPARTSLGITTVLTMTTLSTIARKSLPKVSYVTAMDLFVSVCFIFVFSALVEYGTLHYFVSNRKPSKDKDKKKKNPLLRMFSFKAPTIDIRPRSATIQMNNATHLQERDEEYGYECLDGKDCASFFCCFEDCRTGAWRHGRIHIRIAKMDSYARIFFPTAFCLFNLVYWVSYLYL
# EXPERIMENT: QPatch electrophysiological recording, % enhancement of GABA current (α2 PAM)
# Type: cell-based
# RUN CONDITIONS: approximately EC10 GABA, −60 mV, whole-cell patch clamp
Give α2 PAM (%) for every item shown.
Provide only the numeric value, understood in %.

α2 PAM (%) lookup needed for CCn1cnc2c(-c3ccc(F)c(-c4ccc(S(C)(=O)=O)cc4OC)c3)cnnc21 [Example 12] , thanks.
39.1

α2 PAM (%) lookup needed for NS(=O)(=O)c1ccc(-c2cc(-c3cnnc4c3ncn4C3CC3)ccc2F)cc1 [Example 20] , thanks.
36.3

α2 PAM (%) lookup needed for CCn1cnc2c(-c3ccc(F)c(-c4ccc(S(=O)(=O)NC)cc4)c3)cnnc21 [Example 8] , thanks.
19.4

α2 PAM (%) lookup needed for CCn1cnc2c(-c3ccc(F)c(-c4ccc(S(N)(=O)=O)cc4)c3)cnnc21 [Example 3] , thanks.
27.6

α2 PAM (%) lookup needed for CCS(=O)(=O)c1ccc(-c2cc(-c3cnnc4c3ncn4C3CC3)ccc2F)c(C#N)c1 [Example 25] , thanks.
23.9

α2 PAM (%) lookup needed for CCn1cnc2c(-c3ccc(Cl)c(-c4ccc(S(=O)(=O)CC)cc4OC)c3)cnnc21 [Example 45] , thanks.
61.1

α2 PAM (%) lookup needed for CCS(=O)(=O)c1ccc(-c2cc(-c3cnnc4c3ncn4C(C)C)ccc2F)c(F)c1 [Example 34] , thanks.
94.7

α2 PAM (%) lookup needed for CCn1cnc2c(-c3ccc(F)c(-c4ccc(S(=O)(=O)CC)cc4)c3)cnnc21 [Example 49] , thanks.
83.9

α2 PAM (%) lookup needed for COc1cc(S(C)(=O)=O)ccc1-c1cc(-c2cnnc3c2ncn3C2CC2)ccc1F [Example 24] , thanks.
55.3

α2 PAM (%) lookup needed for COc1cc(S(C)(=O)=O)ccc1-c1cc(-c2cnnc3c2ncn3C2CCC2)ccc1F [Example 29] , thanks.
173

α2 PAM (%) lookup needed for COc1cc(S(C)(=O)=O)ccc1-c1cc(-c2cnnc3c2ncn3C2CCCC2)ccc1F [Example 42] , thanks.
199

α2 PAM (%) lookup needed for CNS(=O)(=O)c1ccc(-c2cc(-c3cnnc4c3ncn4C(C)C)ccc2F)cc1 [Example 33] , thanks.
79.9

α2 PAM (%) lookup needed for CCS(=O)(=O)c1ccc(-c2cc(-c3cnnc4c3ncn4C(C)C)ccc2F)c(C#N)c1 [Example 41] , thanks.
81.3

α2 PAM (%) lookup needed for CCn1cnc2c(-c3ccc(F)c(-c4ccc(S(C)(=O)=O)cc4)c3)cnnc21 [Example 9] , thanks.
38.9

α2 PAM (%) lookup needed for CCn1cnc2c(-c3ccc(C#N)c(-c4ccc(S(=O)(=O)CC)cc4OC)c3)cnnc21 [Example 47] , thanks.
68.7

α2 PAM (%) lookup needed for CCn1cnc2c(-c3ccc(F)c(-c4ccc(S(=O)(=O)CC)cc4C(F)F)c3)cnnc21 [Example 14] , thanks.
58.0

α2 PAM (%) lookup needed for CCS(=O)(=O)c1ccc(-c2cc(-c3cnnc4c3ncn4C(C)C)ccc2F)cc1 [Example 31] , thanks.
118

α2 PAM (%) lookup needed for CCS(=O)(=O)c1ccc(-c2cc(-c3cnnc4c3ncn4C3CC3)ccc2F)cc1 [Example 19] , thanks.
84.3
